test: nuclear p53 accumulation, HPV+ cells – imaging, p53-positive nuclei imaging, 24 h, 48 h (AID 1508601); conditions: 24/48 h, measured here: cell number at 24 h, concentration not given here
The campaign covered roughly 5,700 compounds. About 85 (1%) were called active. The sample as a whole holds a higher share of actives than the screen did.
MEASURED ENDPOINT: nuclei count, normalised
Hi, when you answer, please include the unit after the number. Thanks!

Take a look at these entries with their results.
In [3]: df
Out[3]:
                                   compound         measured_endpoint  experimental_value
0  CC(C)CC1(CO)CCCN(C(=O)c2cccc(C#CC(C)(C)O)c2)C1 (centres undefined)  nuclei count, normalised                 99%
1           Cn1ncc(NC(=O)CCc2cn3ccccc3n2)n1  nuclei count, normalised               84.4%
2     Cc1cc(C)c(/C=C2\C(=O)Nc3ccccc32)[nH]1  nuclei count, normalised               96.2%

Please examine the following record next.
input: Supply recorded nuclei count, normalised for `c1ccc(C(OC2CCN(CCCc3nn[nH]n3)CC2)c2ccccc2)cc1` here.
output: 101%

---

biological target: Cellular tumor antigen p53 (Homo sapiens); test: nuclear p53 accumulation, HPV+ cells – imaging, p53-positive nuclei imaging, 24 h, 48 h (AID 1508601); details: 24/48 h, concentration not given here
Among all 5,700 compounds or so, about 85 (1%) were called active. Cut-off read from the data, not from the text of the source: active = p53-positive nuclei above about 36% (passing the limit was not always enough); inactive = the rest. The entries come from a sample that favours actives as a whole. Peptide text beside a SMILES is read from it.
Pick one and only one: active, inactive

>>> print(df.to_string())
                                   compound  answer_label
0        CN(C)c1ccc(C(=O)NCCCCCCC(=O)NO)cc1      inactive
1  COC(=O)[C@H](Cc1ccccc1)NC(=O)[C@@H](N)CC(=O)O (H-Asp-Phe-OMe)      inactive
2  CC(/C=C/C(=O)NO)=C\[C@@H](C)C(=O)c1ccc(N(C)C)cc1        active

Please examine the following record next.
input: What is the recorded call for this compound in the test? `CCCCCCCCCCCCCCCCOC[C@H](CO)OC(C)=O`
output: inactive

---

test: nuclear p53 accumulation, HPV+ cells – imaging, p53-positive nuclei imaging, 24 h, 48 h (AID 1508601); conditions: 24/48 h, measured here: cell number at 24 h, Library stock concentration: 4.6 uM
In all, about 5,700 compounds went through this assay and about 85 (1%) were called active. The list comes from a sample in which actives are over-represented; it also holds close analogues and randomly drawn compounds.
Field: nuclei count, normalised. Provide a value for each of the compounds that follow.
Answers are plain numbers, in %.

Take a look at these entries with their results.
                                   compound         measured_endpoint  experimental_value
0  COc1ccc(N2C(=O)C(=Cc3ccc([N+](=O)[O-])s3)SC2=S)cc1  nuclei count, normalised                 108
1  OCC1OC(n2cnc3c2NC=NCC3O)CC1O (centres undefined)  nuclei count, normalised                 116
2     CCOC(=O)c1sc(NC(=O)c2ccco2)c(SC#N)c1C  nuclei count, normalised                 115
3  OC(c1cc(C(F)(F)F)nc2c(C(F)(F)F)cccc12)[C@H]1CCCCN1 (some centres undefined)  nuclei count, normalised                 109
4          COC(=O)C#Cc1ccc([N+](=O)[O-])cc1  nuclei count, normalised                 106

Parameter requested: nuclei count, normalised. Apply to each item below.
1. N#CSc1cc(SC#N)c(N)nc1N
2. NC(=O)c1ncn(C2OC(CO)C(O)C2O)c1O (centres undefined)
3. Nc1ccn(C2C=C(CO)C(O)C2O)c(=O)n1 (centres undefined)
4. CN(C)CCC(CSc1ccccc1)Nc1ccc(S(=O)(=O)NC(=O)c2ccc(N3CCN(Cc4ccccc4-c4ccc(Cl)cc4)CC3)cc2)cc1[N+](=O)[O-] (centres undefined)

output:
[121, 114, 110, 117]

---

assay: nuclear p53 accumulation, HPV+ cells – imaging, p53-positive nuclei imaging, 24 h, 48 h (AID 1508601); details: 24/48 h, measured here: cell number at 24 h, Library stock concentration: 41 uM
About 85 (1%) of roughly 5,700 compounds were called active. This excerpt belongs to a sample that is enriched for actives.
Field: nuclei count, normalised. Provide a value for each of the molecules that follow.
Give bare numbers, in %.

Take a look at these entries with their results.
MOLECULE	nuclei count, normalised [%]
OC(c1cc(C(F)(F)F)nc2c(C(F)(F)F)cccc12)[C@H]1CCCCN1 (some centres not stated)	117
Nc1ccn(C2C=C(CO)C(O)C2O)c(=O)n1 (configuration not stated)	115
CN(NC(=O)CC(=O)NN(C)C(=S)c1ccccc1)C(=S)c1ccccc1	94.3

Parameter requested: nuclei count, normalised. Apply to each item below.
1. Nc1ccn(C2OC(CO)C(O)C2F)c(=O)n1 (configuration not stated)
2. COc1ccc(N2C(=O)C(=Cc3ccc([N+](=O)[O-])s3)SC2=S)cc1
3. N#CSc1cc(SC#N)c(N)nc1N

output:
64.5
105
107

---

Field: nuclei count, normalised. Provide a value for each of the molecules that follow.
test: nuclear p53 accumulation, HPV+ cells – imaging, p53-positive nuclei imaging, 24 h, 48 h (AID 1508601); details: 24/48 h, measured here: cell number at 24 h, Library stock concentration: 46 uM
Out of some 5,700 compounds screened, about 85 (1%) were called active. What follows is part of a selection rich in actives, with near analogues and random picks from the rest.

Take a look at these entries with their results.
>>> df
                           structure_string  experimental_value
0  CNC(=O)c1ccc(Nc2ncc(C(F)(F)F)c(NCc3nccnc3N(C)S(C)(=O)=O)n2)cc1               91.8%
1  O=C(O)CCCCCCCCCCCNC(=O)NC12CC3CC(CC(C3)C1)C2                111%
2  Cc1cc(OCc2nnc(SC3CCCC3)n2-c2cccnc2)ccc1-c1ccc(S(C)(=O)=O)cc1                107%

Please examine the following record next.
input: Supply recorded nuclei count, normalised for `C#CCOc1ccc2c(c1)c(-c1ccc(C(C)C)cc1)nc(=O)n2C(C)C` here.
output: 104%

---

assay: nuclear p53 accumulation, HPV+ cells – imaging, p53-positive nuclei imaging, 24 h, 48 h (AID 1508601); conditions: 24/48 h, measured here: cell number at 24 h, Library stock concentration: 13.7 uM
About 85 (1%) of roughly 5,700 compounds were called active. The list comes from a sample in which actives are over-represented; it also holds close analogues and randomly drawn compounds.
MEASURED ENDPOINT: nuclei count, normalised (%)
Give bare numbers, in %.

Take a look at these entries with their results.
                                   compound  experimental_value
0  COc1ccc(N2C(=O)C(=Cc3ccc([N+](=O)[O-])s3)SC2=S)cc1                 110
1     O=C(O)c1ccccc1SC1=NS(=O)(=O)c2ccccc21                 120
2  C=C1C(=O)OC(CCCCCCCC)C1C(=O)O (stereo not given)                 112
3     CCOC(=O)c1sc(NC(=O)c2ccco2)c(SC#N)c1C                 107

Please examine the following record next.
input: Supply recorded nuclei count, normalised for `N#CSc1cc(SC#N)c(N)nc1N` here.
output: 119

---

experiment: nuclear p53 accumulation, HPV+ cells – imaging, p53-positive nuclei imaging, 24 h, 48 h (AID 1508601); conditions: 24/48 h, measured here: cell number at 24 h, Library stock concentration: 10 mM
Hit rate of the full screen: of about 5,700 compounds, about 85 (1%) were called active. This excerpt belongs to a sample that is enriched for actives.
MEASURED ENDPOINT: nuclei count, normalised (%)
One number for each entry, in %.

Parameter requested: nuclei count, normalised. Apply to each item below.
1. COC(=O)C#Cc1ccc([N+](=O)[O-])cc1
2. O=C1SC(=Cc2ccc(OCc3cccc(B(O)O)c3)cc2)C(=O)N1Cc1ccc(F)cc1
3. Cc1ccc(B(O)O)cc1

output:
1: 49.2; 2: 110; 3: 110

Parameter requested: nuclei count, normalised. Apply to each item below.
1. CN(CCC(Oc1ccc(-c2ccccc2)cc1)c1ccc(F)cc1)CC(=O)O (stereo unspecified)
2. CN1CCC(c2c(O)cc(O)c3c(=O)cc(-c4ccccc4Cl)oc23)C(O)C1 (stereo unspecified)
3. Cn1cc(CNCC2CCN(c3ncc(C(=O)NO)cn3)CC2)c2ccccc21
4. CN1CCc2c(c3ccccc3n2Cc2ccc(C(=O)NO)cc2)C1
5. COC(=O)c1c(NC(=O)CC2SC(=N)NC2=O)sc(C)c1C (stereo unspecified)
6. Cn1cc(C2=C(c3cn(CCCSC(=N)N)c4ccccc34)C(=O)NC2=O)c2ccccc21
7. Nc1ccn(C2C=C(CO)C(O)C2O)c(=O)n1 (stereo unspecified)
8. Cc1c(CN2CCN(C(=O)C(C)O)CC2)sc2c(N3CCOCC3)nc(-c3cnc(N)nc3)nc12 (stereo unspecified)

output:
1: 115; 2: 27.6; 3: 37.2; 4: 114; 5: 101; 6: 38.8; 7: 65.3; 8: 84.4

Parameter requested: nuclei count, normalised. Apply to each item below.
1. CCN(CC)c1ccc(C=NNC(=O)c2ccc(O)cc2)cc1
2. COc1cc(C(=O)NS(=O)(=O)c2ccccc2C)ccc1Cc1cn(C)c2ccc(NC(=O)OC3CCCC3)cc12

output:
1: 79.3; 2: 105

Parameter requested: nuclei count, normalised. Apply to each item below.
1. O=C(O)c1ccccc1SC1=NS(=O)(=O)c2ccccc21
2. Cc1cc(OCCCS(C)(=O)=O)cc(C)c1-c1cccc(COc2ccc3c(c2)OCC3CC(=O)O)c1 (stereo unspecified)
3. CN1CCC(c2c(O)cc(O)c3c(=O)cc(-c4ccccc4Cl)oc23)C1CO (stereo unspecified)
4. Nc1ncn([C@@H]2O[C@@H](CO)[C@H](O)[C@@H]2O)c(=O)n1
5. CC(C)CC(NC(=O)C(O)C(N)Cc1ccccc1)C(=O)O (stereo unspecified)
6. c1cc(NCCc2c[nH]c3ccccc23)cc(Nc2ccncc2)c1
7. COc1ccc(-c2nc(N3CCOCC3)c3sc(CN(C)c4ncc(C(=O)NO)cn4)cc3n2)cn1
8. CC(CCC(=O)O)C1CC[C@H]2[C@@H]3C(O)C[C@@H]4CC(O)CC[C@]4(C)[C@@H]3CC[C@]12C (stereo partly specified)

output:
1: 112; 2: 103; 3: 24.1; 4: 65.9; 5: 105; 6: 91.3; 7: 31.5; 8: 105
